# Test system: Escherichia coli TOP10
# test-details: shrunken log2 fold change of peptide-encoding DNA abundance (4.5 h post-induction vs induction); higher = less antimicrobial activity (less host growth inhibition)
# measurement-parameters: time post-induction: 4.5 h; library: site-saturation at positions 5, 18, 19, 20
quantity: shrunken log2 fold change
Format: numeric value only, no unit, no commentary.

Please review the entries below; each comes with its answer.
[[record]]
residues = "RRIRERPPRLPRPRPRPRFGPRP"
numeric_readout = 0.152

[[record]]
residues = "RRIRGRPPRLPRPRPRPQDPPRP"
numeric_readout = 0.337

[[record]]
residues = "RRIRNRPPRLPRPRPRPINVPRP"
numeric_readout = -0.0327

[[record]]
residues = "RRIRVRPPRLPRPRPRPIGCPRP"
numeric_readout = -0.0514


Record RRIRRRPPRLPRPRPRPGYEPRP . Reported shrunken log2 fold change: 0.0872

Record RRIRHRPPRLPRPRPRPCKQPRP . Reported shrunken log2 fold change: -0.0199

Record RRIRFRPPRLPRPRPRPQAVPRP . Reported shrunken log2 fold change: 0.0175

Record RRIRERPPRLPRPRPRPNESPRP . Reported shrunken log2 fold change: 0.0842

---

# Tested on: Escherichia coli TOP10
# test-details: shrunken log2 fold change of peptide-encoding DNA abundance (4.5 h post-induction vs induction); higher = less antimicrobial activity (less host growth inhibition)
# measurement-parameters: time post-induction: 4.5 h; library: site-saturation at positions 5, 18, 19, 20
Use -0.01 as the dividing line for shrunken log2 fold change, with the line itself on the T side and lower values as F.

Please review the following examples before continuing.
[[record]]
residues = "RRIRRRPPRLPRPRPRPGCGPRP"
category = "T"

[[record]]
residues = "RRIRHRPPRLPRPRPRPRHFPRP"
category = "F"

[[record]]
residues = "RRIRHRPPRLPRPRPRPKYGPRP"
category = "T"

[[record]]
residues = "RRIRSRPPRLPRPRPRPLYFPRP"
category = "F"

[[record]]
residues = "RRIRHRPPRLPRPRPRPCFEPRP"
category = "F"


hey, is shrunken log2 fold change for this one >= -0.01? RRIRLRPPRLPRPRPRPKRPPRP
F

hey, is shrunken log2 fold change for this one >= -0.01? RRIRFRPPRLPRPRPRPHGPPRP
T

hey, is shrunken log2 fold change for this one >= -0.01? RRIRVRPPRLPRPRPRPVGKPRP
F

hey, is shrunken log2 fold change for this one >= -0.01? RRIRYRPPRLPRPRPRPGKVPRP
F

hey, is shrunken log2 fold change for this one >= -0.01? RRIRCRPPRLPRPRPRPVDIPRP
F

hey, is shrunken log2 fold change for this one >= -0.01? RRIRVRPPRLPRPRPRPVNWPRP
T

---

Below: a set of entries, each annotated with reported shrunken log2 fold change.
# Tested on: Escherichia coli TOP10;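 note: peptides expressed intracellularly from a pBAD plasmid library in pooled LB shake-flask culture, induced with 0.3% L-arabinose, DNA abundance read by NGS, three biological replicates, DESeq2 with apeglm shrinkage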
# test-details: shrunken log2 fold change of peptide-encoding DNA abundance (4.5 h post-induction vs induction); higher = less antimicrobial activity (less host growth inhibition)
# measurement-parameters: time post-induction: 4.5 h; library: site-saturation at positions 5, 18, 19, 20
Format: numeric value only, no unit, no commentary.

Please review the entries below; each comes with its answer.
[[record]]
residues = "RRIRKRPPRLPRPRPRPIEMPRP"
quantity = "shrunken log2 fold change"
numeric_readout = -0.202

[[record]]
residues = "RRIRCRPPRLPRPRPRPMRLPRP"
quantity = "shrunken log2 fold change"
numeric_readout = 0.0914

[[record]]
residues = "RRIRRRPPRLPRPRPRPAYQPRP"
quantity = "shrunken log2 fold change"
numeric_readout = -0.289

[[record]]
residues = "RRIRWRPPRLPRPRPRPIGCPRP"
quantity = "shrunken log2 fold change"
numeric_readout = 0.268


Measured on Escherichia coli TOP10, RRIRSRPPRLPRPRPRPIVPPRP has a documented shrunken log2 fold change of -0.0492
